- experimental-target: Genome polyprotein (Human rhinovirus sp., UniProt Q4U254)
- Sequence (Q4U254 whole entry): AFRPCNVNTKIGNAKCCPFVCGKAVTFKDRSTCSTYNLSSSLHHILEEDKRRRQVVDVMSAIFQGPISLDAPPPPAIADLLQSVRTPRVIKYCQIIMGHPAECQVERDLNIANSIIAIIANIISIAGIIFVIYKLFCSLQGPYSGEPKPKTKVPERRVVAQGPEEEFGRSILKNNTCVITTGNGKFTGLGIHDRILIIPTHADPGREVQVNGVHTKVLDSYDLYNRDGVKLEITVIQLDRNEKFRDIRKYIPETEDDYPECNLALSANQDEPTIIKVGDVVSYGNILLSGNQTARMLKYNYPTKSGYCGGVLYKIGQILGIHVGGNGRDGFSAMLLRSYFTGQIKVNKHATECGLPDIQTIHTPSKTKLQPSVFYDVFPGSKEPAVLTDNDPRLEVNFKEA
Below: a set of entries, each annotated with reported IC50.
Answer format: numeric, µM implied, no suffix.

Examples with answers:
Given the compound COC1=CC(=O)c2c(O)cc(C)cc2C1=O , what is its reported IC50? 2.4

Given the compound O=C1C=CC(=O)c2ccccc21 [1,4-dihydronaphthalene-1,4-dione] , what is its reported IC50? 21

Field: next compound
Given the compound COC1=CC(=O)c2c(cc(C)c(C(C)=O)c2OC(C)=O)C1=O , what is its reported IC50? 8.1

* * *

- experimental-target: Genome polyprotein (Human rhinovirus sp.)
- test: ChEBML_160894
recorded-metric: pIC50
On this scale, pIC50 is minus log10 of a concentration expressed in M (mol/L).

Examples with answers:
Query for Genome polyprotein (Human rhinovirus sp.): what pIC50 does the record show for COC1=CC(=O)c2c(OC(C)=O)cc(C)cc2C1=O ? 4.40

Query for Genome polyprotein (Human rhinovirus sp.): what pIC50 does the record show for COC1=CC(=O)c2ccccc2C1=O ? 4.59

Query for Genome polyprotein (Human rhinovirus sp.): what pIC50 does the record show for O=C1C(=O)c2ccccc2-c2ccccc21 ? 5.85

Query for Genome polyprotein (Human rhinovirus sp.): what pIC50 does the record show for O=C1C=CC(=O)c2c1ccc1c2ccc2ccccc21 [Chrysene-1,4-dione] ? 4.33

Query for Genome polyprotein (Human rhinovirus sp.): what pIC50 does the record show for COC1=CC(=O)c2cc(C)c(C(C)=O)c(OC)c2C1=O ? 3.91

***
Query for Genome polyprotein (Human rhinovirus sp.): what pIC50 does the record show for Cc1cc(O)c2c(c1)C(=O)C=CC2=O [5-Hydroxy-7-methyl-[1,4]naphthoquinone] ? 5.19

Query for Genome polyprotein (Human rhinovirus sp.): what pIC50 does the record show for COC1=CC(=O)c2c(cc(C)c(C(C)=O)c2O)C1=O ? 5.34

Query for Genome polyprotein (Human rhinovirus sp.): what pIC50 does the record show for COC1=CC(=O)c2ccc(C)cc2C1=O [2-Methoxy-7-methyl-[1,4]naphthoquinone] ? 4.98

Query for Genome polyprotein (Human rhinovirus sp.): what pIC50 does the record show for C[C@@H]1CC2=C(C(=O)c3c(O)cc(O)cc3C2=O)[C@@H](O)O1 ? 4.33
